test: Plasma PK, Part A single oral doses in healthy participants; assay type: in vivo, human; conditions: human, plasma, oral, 100 mg, single dose 100 mg (2 × 50 mg), fasted; read-out: t½, arithmetic mean (SD) (converted)

| Chemical String | Value Unit | half-life |
| --- | --- | --- |
| OC[C@H]1O[C@H](Sc2cncc(Br)c2)[C@H](O)[C@@H](n2cc(-c3cc(F)c(F)c(F)c3)nn2)[C@H]1O | min | 768 |

* * *

experiment: Plasma PK, Part A single oral doses in healthy participants; assay type: in vivo, human; settings: human, plasma, oral, 50 mg, single dose 50 mg (10 × 5 mg), fasted; read-out: Cmax, geometric mean (CV%)
Measured Parameter: Cmax (ng/mL)

| Chemical String | Reading |
| --- | --- |
| OC[C@H]1O[C@H](Sc2cncc(Br)c2)[C@H](O)[C@@H](n2cc(-c3cc(F)c(F)c(F)c3)nn2)[C@H]1O | 861 |

* * *

Experiment: Plasma PK, Part A single oral doses in healthy participants
Format: in vivo, human
Conditions: human, plasma, oral, 200 mg, single dose 200 mg (4 × 50 mg), fasted; read-out: AUC0–∞, geometric mean (CV%)
Method: A further two cohorts were recruited. […] Each individual participated in one treatment period only, with the exception of the food-effect cohort (cohort A3) in which there were two treatment periods separated by at least 7 days washout. […] Dose proportionality was analyzed for exposure parameters after fasted doses. The power model was used on AUC0–∞, AUC0–tlast, and Cmax on day 1 in Part A. Data were analyzed over two dose ranges: 50–400 mg (50 mg capsules) and 5–50 mg (5 mg capsules). […]

| Molecule | Value Unit | AUC(0-inf) |
| --- | --- | --- |
| OC[C@H]1O[C@H](Sc2cncc(Br)c2)[C@H](O)[C@@H](n2cc(-c3cc(F)c(F)c(F)c3)nn2)[C@H]1O [GB1211] | ng·h/mL | 12900 |

* * *

test: Plasma PK, Part A single oral doses in healthy participants; type: in vivo, human; conditions: human, plasma, oral, 20 mg, single dose 20 mg (4 × 5 mg), fasted; read-out: Tmax, median (min–max)
Measured Parameter: Tmax (h)

| Compound | Value Unit | Reading |
| --- | --- | --- |
| OC[C@H]1O[C@H](Sc2cncc(Br)c2)[C@H](O)[C@@H](n2cc(-c3cc(F)c(F)c(F)c3)nn2)[C@H]1O [GB1211] | h | 1.75 |

* * *

test: Urine PK, Part A single oral doses in healthy participants; assay type: in vivo, human; settings: human, urine, oral, 50 mg, single dose 50 mg (1 × 50 mg), fasted; read-out: CLR, geometric mean (CV%) (converted)
Measured Parameter: CL renal (mL/min)

| Chemical String | Measured Parameter | Reading |
| --- | --- | --- |
| OC[C@H]1O[C@H](Sc2cncc(Br)c2)[C@H](O)[C@@H](n2cc(-c3cc(F)c(F)c(F)c3)nn2)[C@H]1O | CL renal | 37.3 |

* * *

assay: Plasma PK, Part A single oral doses in healthy participants; format: in vivo, human; settings: human, plasma, oral, 20 mg, single dose 20 mg (4 × 5 mg), fasted; read-out: AUC0–∞, geometric mean (CV%)

| Chemical String | AUC(0-inf) |
| --- | --- |
| OC[C@H]1O[C@H](Sc2cncc(Br)c2)[C@H](O)[C@@H](n2cc(-c3cc(F)c(F)c(F)c3)nn2)[C@H]1O | 3350 ng·h/mL |

* * *

Experiment: Plasma PK, Part A single oral doses in healthy participants
Format: in vivo, human
Settings: human, plasma, oral, 400 mg, single dose 400 mg (8 × 50 mg), fasted; read-out: t½, arithmetic mean (SD) (converted)
Protocol: A further two cohorts were recruited. […] Each individual participated in one treatment period only, with the exception of the food-effect cohort (cohort A3) in which there were two treatment periods separated by at least 7 days washout. […] Dose proportionality was analyzed for exposure parameters after fasted doses. The power model was used on AUC0–∞, AUC0–tlast, and Cmax on day 1 in Part A. Data were analyzed over two dose ranges: 50–400 mg (50 mg capsules) and 5–50 mg (5 mg capsules). […]

| Molecule | Value Unit | half-life |
| --- | --- | --- |
| OC[C@H]1O[C@H](Sc2cncc(Br)c2)[C@H](O)[C@@H](n2cc(-c3cc(F)c(F)c(F)c3)nn2)[C@H]1O [GB1211] | h | 15.2 |

* * *

experiment: Plasma PK, Part A single oral doses in healthy participants; assay type: in vivo, human; settings: human, plasma, oral, 50 mg, single dose 50 mg (1 × 50 mg), fed; read-out: AUC0–tlast, geometric mean (CV%)
Measured Parameter: AUC(0-t) (ng·h/mL)

| Molecule | Reading |
| --- | --- |
| OC[C@H]1O[C@H](Sc2cncc(Br)c2)[C@H](O)[C@@H](n2cc(-c3cc(F)c(F)c(F)c3)nn2)[C@H]1O [GB1211] | 4930 |

* * *

assay: Plasma PK, Part A single oral doses in healthy participants; type: in vivo, human; settings: human, plasma, oral, 200 mg, single dose 200 mg (4 × 50 mg), fasted; read-out: Tmax, median (min–max)

| Compound | Tmax, h |
| --- | --- |
| OC[C@H]1O[C@H](Sc2cncc(Br)c2)[C@H](O)[C@@H](n2cc(-c3cc(F)c(F)c(F)c3)nn2)[C@H]1O [GB1211] | 3.5 |

* * *

assay: Plasma PK, Part B multiple oral BID doses in healthy participants; type: in vivo, human; conditions: human, plasma, oral, 50 mg BID, day 10; read-out: Trough (12 h post-dose) concentration (Cmin), geometric mean (range)

| Chemical String | Value Unit | concentration at 12 h |
| --- | --- | --- |
| OC[C@H]1O[C@H](Sc2cncc(Br)c2)[C@H](O)[C@@H](n2cc(-c3cc(F)c(F)c(F)c3)nn2)[C@H]1O | µg/mL | 0.249 |

* * *

assay: Plasma PK, Part B multiple oral BID doses in healthy participants; format: in vivo, human; details: human, plasma, oral, 100 mg, 100 mg BID, fasted, Day 1; read-out: Cmax, geometric mean (CV%)

| Compound | Cmax (ng/mL) |
| --- | --- |
| OC[C@H]1O[C@H](Sc2cncc(Br)c2)[C@H](O)[C@@H](n2cc(-c3cc(F)c(F)c(F)c3)nn2)[C@H]1O [GB1211] | 546 |

* * *

experiment: Plasma PK, Part B multiple oral BID doses in healthy participants; assay type: in vivo, human; details: human, plasma, oral, 100 mg, 100 mg BID, fasted, Day 1; read-out: Tmax, median (min–max)

| Chemical String | Tmax |
| --- | --- |
| OC[C@H]1O[C@H](Sc2cncc(Br)c2)[C@H](O)[C@@H](n2cc(-c3cc(F)c(F)c(F)c3)nn2)[C@H]1O | 3 h |

* * *

experiment: Plasma PK, Part B multiple oral BID doses in healthy participants; assay type: in vivo, human; details: human, plasma, oral, 100 mg, 100 mg BID, fasted, Day 1; read-out: AUC0-τ, geometric mean (CV%)
Measured Parameter: AUC (ng·h/mL)

| Chemical String | Measured Parameter | Value Unit | Reading |
| --- | --- | --- | --- |
| OC[C@H]1O[C@H](Sc2cncc(Br)c2)[C@H](O)[C@@H](n2cc(-c3cc(F)c(F)c(F)c3)nn2)[C@H]1O | AUC | ng·h/mL | 3560 |

* * *

Experiment: Plasma PK, Part A single oral doses in healthy participants
Type: in vivo, human
Details: human, plasma, oral, 100 mg, single dose 100 mg (2 × 50 mg), fasted; read-out: Tmax, median (min–max)
Description: A further two cohorts were recruited. […] Each individual participated in one treatment period only, with the exception of the food-effect cohort (cohort A3) in which there were two treatment periods separated by at least 7 days washout. […] Dose proportionality was analyzed for exposure parameters after fasted doses. The power model was used on AUC0–∞, AUC0–tlast, and Cmax on day 1 in Part A. Data were analyzed over two dose ranges: 50–400 mg (50 mg capsules) and 5–50 mg (5 mg capsules). […]
Measured Parameter: Tmax (h)

| Compound | Value Unit | Reading |
| --- | --- | --- |
| OC[C@H]1O[C@H](Sc2cncc(Br)c2)[C@H](O)[C@@H](n2cc(-c3cc(F)c(F)c(F)c3)nn2)[C@H]1O [GB1211] | h | 3.5 |

* * *

experiment: Plasma PK, Part A single oral doses in healthy participants; type: in vivo, human; settings: human, plasma, oral, 5–50 mg (5 mg capsule), single dose, fasted; read-out: Median Tmax, range across doses
Measured Parameter: Tmax

| Chemical String | Measured Parameter | Reading |
| --- | --- | --- |
| OC[C@H]1O[C@H](Sc2cncc(Br)c2)[C@H](O)[C@@H](n2cc(-c3cc(F)c(F)c(F)c3)nn2)[C@H]1O | Tmax | 1.75 to 2 h |
